The reported numbers originate from patent US20170166631A1.

Biological target: T1, HD21 (huntingtin exon 1 protein with 21 polyQ repeats after cleavage of the GST tag; aggregation reaction) (human, UniProt P42858 1-88)
T1 chain: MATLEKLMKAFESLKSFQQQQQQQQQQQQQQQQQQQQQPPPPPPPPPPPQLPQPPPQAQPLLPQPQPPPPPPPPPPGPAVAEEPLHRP
Assay: ELISA
quantity name: pEC50
Keep in mind that pEC50 stands for -log10 of concentration in molar terms.

Form field: reported pEC50 of NI-302.52C9 (antibody, V domains shown) VH: EVQLVQSGGGLVQPGGSLRLSCAGSGFTVSDTYMSWVRQAPGKGLEWVSGIHAGGETYYADSVKGRFTISRDNSKNTLYLQMNRLTPEDTAVFYCARHYYGNDDDTDYWGQGTLVTVSS VL: DVVMTQSPLSLPVTPGEPASISCRSSQSLLHSNGYNYLDWYVQKPGQSPQLLIYLGSTRASGVPDRFSGSGSGTDFTLKISRVEAEDVGVYYCLQAQQIPWTFGQGTKVEIK 7.55

Form field: reported pEC50 of NI-302.11A4 (antibody, V domains shown) VH: EVQLVESGGGLIQPGGSLRLSCAASGFPVSSSYMSWVRQAPGEGLEWVSVLYRDGDTYYADSVQGRFTISRDNSQNTFYLQMNSLKAEDTAVYYCAGDRRSSHYYYGMDVWGQGTTVTVSS VL: EIVMTQSPGTLSLSPGERATLSCRASQSVSSSYFAWYQQKPGQAPRLLIYGTSRRATAIPDRFSGSGSGTDFTLTISRLEPEDFAVYYCQQYGSSWTFGPGTKVEIK 7.74

Form field: reported pEC50 of NI-302.39G12 (antibody, V domains shown) VH: EVQLVQSGGGLVHPWGSLRLSCAASGFSVSNYAITWVRRAPGKGLQYISVIYRDGRTYYGDSVRGRFTISRDDSKNTLYLQMNSLRFEDTAVYYCARAHGQYYYGVDVWGQGTTVTVSS VL: DVVMTQSPLSLSVSPGEPASISCRSSQSLLHSNGYNYLDWYRQKPGQSPQLLIYLSSNRPSGVPDRFSASGSGTEFTLQISRVEAEDVGVYYCMQSLQTFTFGGGTKVDIK 7.82

Form field: reported pEC50 of NI-302.55D8 (antibody, V domains shown) VH: QVQLVQSGSEVKKPGASVKVSCKASGYTFTDYYIHWVRQAPGQGLEWMGRINPNNGGTNYAQNFQGWVTMTRDTSISTAYMELSRLRSDDTAVYYCARVGGELLREGGYHYYMDVWGKGTTVTVSS VL: QSVLTQPPSVSGAPGQRVTISCTGNSSNIGAGYDVHWYQQLPGTAPKLLIFDNTNRPSGVPDRFSGSKSGTSASLAITGLQAEDEANYHCQSYDNSLSGSWVFGGGTKLTVL 8.92

Form field: reported pEC50 of NI-302.71F6 (antibody, V domains shown) VH: QVQLQQWGAGLLKPSETLSLTCAVYGGSLSGYYWSWIRQPPGKGLEWIGEVNHSGGTNLNSSLKSRVIISVDKSKKQFSLKLSSVTAADTAMYFCARGYSYDPKYYFDSWSQGTLVTVSS VL: QSALTQPASVSGSPGQAITISCTGTSSDIGSYDFVSWYQQDPGKAPKVIIYGVNKRPSGVSNRFSGSKSGNTASLTISGLQADDEADYYCCSYAGSTTWVFGGGTKLTVL 8.12

Form field: reported pEC50 of NI-302.3D8 (antibody, V domains shown) VH: EVQLVQSGGGLVQPGGSLRLSCEASGFIFKTYAMSWVRQLPGRGLEWVSAISATGGSTFYAESVKGRLTISRDTAKNTVYLQMNNLRAEDTAMYYCAKGSTAVYLFDSWGQGTLVTVSS VL: DIQMTQSPSSLSASVGDRVTLTCRASQDIRNFLAWIQQKPGKPPKSLIYAASTLQSGVPSRFSGSGSGTDFTLTISSLHPEDFATYYCQQFYNYPPTFGQGTKVEIK 10.70

Form field: reported pEC50 of NI-302.22H9 (antibody, V domains shown) VH: EVQLVESGGGLVHPWGSLRVSCAASGFSVSNYAITWVRQAPGKGLEYISVIYRDGRTYYGDSVRGRFTISRDDSKNTIYLQMNSLRFEDTAVYYCARAHGQYYYGVDVWGQGTTVTVSS VL: DVVMTQSPLSLSVSPGEPASISCRSSQSLLHSNGYNYLDWYRQKPGQSPQLLIYLNSNRASGVPDRFSGSGSGTEFTLTISRVEAEDVGVYYCMQSLQTFTFGGGTKVEIK 7.96

Form field: reported pEC50 of NI-302.18A1 (antibody, V domains shown) VH: QLQLQESGPGLVKPSEALSLTCTVSGGSITTDYYYWGWIRQSPGKGLEWVGTIYFGGATYYNPSLRNRVSISVDTSNTRLSLRLISLSAADTAVYYCARVGYLDRSGLLVGQGTLVTVSS VL: EIVLTQSPLSVPVTPGEPASISCRSSQSLLHNNGYNYLDWYLKKPGQSPQLLIYLGSTRASGVPDRFSASGSGTDFTLEISRVEAEDVGVYYCMQALQTPPTFGRGTKVEIK 10.70

Form field: reported pEC50 of NI-302.11H6 (antibody, V domains shown) VH: EVQLVQSGAVMKKPGDSVRVSCRASTYSFSTYSFTWVRQVPGQGLEWMGWISAYNGHTNYVDSFQGRLTLTTDTSASTAYMELRSLRSDDTAIYYCAAVDTTYYYYGMDVWGQGTLVTVSS VL: QTVVTQEPTFSVSPGGTVTLTCALRFGSVSSSYYPSWFQQTPGQAPRTLIYSTNTRSSGVPARFSGSILGNKAALTIAGAQANDEADYYCVLYMGSGIGVFGGGTKLTVL 8.92

Form field: reported pEC50 of NI-302.44D7 (antibody, V domains shown) VH: EVQLVQSGGGLVQPGGSLRLSCAASGFTFSSYAMSWVRQAPGKGLEWVSGIGYSDTSTYYADSVKGRFTVSRDISKNTLYLQMNSLRAEDTAVYYCAKGTRDYYGMDVWGQGTMVTVSS VL: QTVVTQEPSFSVSPGGTVTLTCGLSSGSVSTSYYPSWYQQTPGRAPRTLIYSTNTRSSGVPDRFSGSILGNKAALTITGAQADDESDYYCVLFMGSGIGVFGGGTRLTVL 7.96
